Each record here notes measured melting point.

Examples from the recorded data:
compound	melting point
CCN1N=C(C(F)(F)F)CC1=O	169 to 171 °C
Nc1ccc(OCc2cccnc2)cc1	79 to 81 °C
O=C(O)CCCCc1ccc(I)cc1	109 to 111 °C

Input: Record request: melting point value, item `Nc1cccc(Cn2cnnc2)c1`
Output: 139 to 141 °C

Input: Record request: melting point value, item `CC(C)c1cc(N)n(C(C)C)n1`
Output: 52 to 54 °C

Input: Record request: melting point value, item `O=Cc1ccc([N+](=O)[O-])cc1F`
Output: 84 to 86 °C

Input: Record request: melting point value, item CC(NS(=O)(=O)c1ccc(Cl)cc1)C(=O)O (centres undefined)
Output: 136 to 138 °C

Input: Record request: melting point value, item `CCCn1c(N)cc(=O)n(C)c1=O`
Output: 166 to 168 °C

Input: Record request: melting point value, item COC(=O)C(N)c1cccnc1 (centres undefined)
Output: 61 to 63 °C

This collection of values is drawn from a melting point compilation (Tetko et al.).
